# Test system: Echinochloa crus-galli (ECHCG)
# Assay method text: Pre-emergence herbicidal activity, glasshouse pot test
# Assay type: in vivo
# Test context: Echinochloa crus-galli, 312 h; Rate 250 g/ha; pre-emergence spray; evaluated after 13 days; read-out: Pre-emergence activity ECHCG (100=total damage to plant; 0=no damage to plant)
Measured endpoint: pest or weed control at 250 g/ha

Quick note, pest or weed control at 250 g/ha for CCc1ccc(Oc2nc(F)c(Cl)c(Cl)c2Cl)cc1C1=C(O)C(C)(C)OC(C)(C)C1=O landed at 50%

Quick note, pest or weed control at 250 g/ha for CCc1ccc(Oc2ccc(Br)cc2Cl)cc1C1=C(O)[C@@H]2CC[C@](C)(C1=O)C2(C)C landed at 70%

Quick note, pest or weed control at 250 g/ha for CCc1ccc(Oc2nc3ccc(OC(F)(F)F)cc3s2)cc1C1=C(O)C(C)(C)OC(C)(C)C1=O landed at 50%

Quick note, pest or weed control at 250 g/ha for CCc1ccc(Oc2ncc(C)nc2C)cc1C1=C(O)C(C)(C)OC(C)(C)C1=O landed at 30%

###

# Test system: Echinochloa crus-galli (ECHCG)
# Assay method text: Pre-emergence herbicidal activity, glasshouse pot test
# Assay type: in vivo
# Test context: Echinochloa crus-galli, 312 h; Rate 250 g/ha; pre-emergence spray; evaluated after 13 days; read-out: Pre-emergence activity ECHCG (100=total damage to plant; 0=no damage to plant)
Lab note: anything with pest or weed control at 250 g/ha at or over 20% counts as Yes; the rest go in No.

Could you tell me if the measured pest or weed control at 250 g/ha of CCc1ccc(Oc2nc(C(F)(F)F)c(C#N)s2)cc1C1=C(O)C(C)(C)OC(C)(C)C1=O reaches 20% or more? No

Could you tell me if the measured pest or weed control at 250 g/ha of CCc1ccc(Oc2ccc(C#N)cc2)cc1C1=C(O)C(C)(C)OC(C)(C)C1=O reaches 20% or more? Yes

Could you tell me if the measured pest or weed control at 250 g/ha of CCc1ccc(Oc2ncc(Cl)cc2C(F)(F)F)cc1C1=C(O)C(C)(C)OC(C)(C)C1=O reaches 20% or more? Yes

Could you tell me if the measured pest or weed control at 250 g/ha of CCc1ccc(Oc2ccc(F)c(Cl)c2)cc1C1=C(O)CC(C)(C)CC1=O reaches 20% or more? Yes

Could you tell me if the measured pest or weed control at 250 g/ha of CCc1ccc(Oc2ncc(C(F)(F)F)cc2C(F)(F)F)cc1C1=C(O)C(C)(C)OC(C)(C)C1=O reaches 20% or more? Yes

Could you tell me if the measured pest or weed control at 250 g/ha of CCc1ccc(Oc2ccc(Br)cc2C)cc1C1=C(O)C(C)(C)OC(C)(C)C1=O reaches 20% or more? No

Could you tell me if the measured pest or weed control at 250 g/ha of CCc1ccc(Oc2cc(C)c(Cl)nn2)cc1C1=C(O)C(C)(C)OC(C)(C)C1=O reaches 20% or more? No

Could you tell me if the measured pest or weed control at 250 g/ha of CCc1ccc(Oc2ccc([N+](=O)[O-])c(C)c2)cc1C1=C(O)C(C)(C)OC(C)(C)C1=O reaches 20% or more? Yes

Could you tell me if the measured pest or weed control at 250 g/ha of CCc1ccc(Oc2ccc(C#N)c(C#N)c2)cc1C1=C(O)C(C)(C)OC(C)(C)C1=O reaches 20% or more? Yes

###

Would you mind telling me the reported pest or weed control at 250 g/ha of each entry?
# System: Echinochloa crus-galli (ECHCG)
# Assay method text: Pre-emergence herbicidal activity, glasshouse pot test
# Assay type: in vivo
# Test context: Echinochloa crus-galli, 312 h; Rate 250 g/ha; pre-emergence spray; evaluated after 13 days; read-out: Pre-emergence activity ECHCG (100=total damage to plant; 0=no damage to plant)
Report as a plain number; the unit % is understood.

Quick note, pest or weed control at 250 g/ha for CCc1ccc(Oc2cccc(C(F)(F)F)n2)cc1C1=C(O)C(C)(C)OC(C)(C)C1=O landed at 20

Quick note, pest or weed control at 250 g/ha for CCc1ccc(Oc2nc(F)c(Cl)c(OC)c2Cl)cc1C1=C(O)C(C)(C)OC(C)(C)C1=O landed at 0

Quick note, pest or weed control at 250 g/ha for CCc1ccc(Oc2cccc(F)c2)cc1C1=C(O)C(C)(C)OC(C)(C)C1=O landed at 70

Quick note, pest or weed control at 250 g/ha for CCc1ccc(Oc2cnc3ccccc3n2)cc1C1=C(O)C(C)(C)OC(C)(C)C1=O landed at 100

Quick note, pest or weed control at 250 g/ha for CCc1ccc(Oc2nc3ccc(Cl)cc3s2)cc1C1=C(O)CC(C)(C)CC1=O landed at 100

Quick note, pest or weed control at 250 g/ha for CCc1ccc(Oc2nnc3cc(Cl)ccc3n2)cc1C1=C(O)C(C)(C)OC(C)(C)C1=O landed at 40

Quick note, pest or weed control at 250 g/ha for CCc1ccc(Oc2ccc(C#N)cc2F)cc1C1=C(O)C(C)(C)OC(C)(C)C1=O landed at 30

Quick note, pest or weed control at 250 g/ha for CCc1ccc(Oc2nc3ccccc3nc2C(F)(F)F)cc1C1=C(O)C(C)(C)OC(C)(C)C1=O landed at 100

###

# System: Alopecurus myosuroides (ALOMY)
# Assay method text: Pre-emergence herbicidal activity, glasshouse pot test
# Format: in vivo
# Test context: Alopecurus myosuroides, 312 h; Rate 250 g/ha; pre-emergence spray; evaluated after 13 days; read-out: Pre-emergence activity ALOMY (100=total damage to plant; 0=no damage to plant)
Measured endpoint: pest or weed control at 250 g/ha (%)
Report as a plain number; the unit % is understood.

Quick note, pest or weed control at 250 g/ha for CCc1ccc(Oc2c(F)ncc(Cl)c2F)cc1C1=C(O)C(C)(C)OC(C)(C)C1=O landed at 0

Quick note, pest or weed control at 250 g/ha for CCc1ccc(Oc2ncc(I)cc2Cl)cc1C1=C(O)C(C)(C)OC(C)(C)C1=O landed at 40

Quick note, pest or weed control at 250 g/ha for CCc1ccc(Oc2nc3ccccc3s2)cc1C1=C(O)[C@@H]2CC[C@](C)(C1=O)C2(C)C landed at 90

Quick note, pest or weed control at 250 g/ha for CCc1ccc(Oc2cc(Cl)c3ccccc3n2)cc1C1=C(O)C(C)(C)OC(C)(C)C1=O landed at 40

Quick note, pest or weed control at 250 g/ha for CCc1ccc(Oc2ccc(C#N)cc2F)cc1C1=C(O)C(C)(C)OC(C)(C)C1=O landed at 0

Quick note, pest or weed control at 250 g/ha for CCc1ccc(Oc2cc(Cl)c(Cl)nn2)cc1C1=C(O)C(C)(C)OC(C)(C)C1=O landed at 10

Quick note, pest or weed control at 250 g/ha for CCc1ccc(Oc2ccc(Br)cc2F)cc1C1=C(O)[C@H]2CC[C@H](C2)C1=O landed at 80

Quick note, pest or weed control at 250 g/ha for CCc1ccc(Oc2ccc(C(F)(F)F)cc2[N+](=O)[O-])cc1C1=C(O)[C@H]2CC[C@H](C2)C1=O landed at 40

###

# Tested on: Alopecurus myosuroides (ALOMY)
# Assay method text: Post-emergence herbicidal activity, glasshouse pot test
# Assay type: in vivo
# Test context: Alopecurus myosuroides, 312 h, rate 250 g/ha, evaluated after 13 days, glasshouse, read-out: Post-emergence activity ALOMY (100=total damage to plant; 0=no damage to plant)
Assign labels as follows, please: YES for pest or weed control at 250 g/ha below 60%; NO for pest or weed control at 250 g/ha equal to or exceeding 60%.

Does the reported pest or weed control at 250 g/ha of the following compound sit strictly below 60%? CCc1ccc(Oc2ccc(Br)cc2F)cc1C1=C(O)CCC(C)(C)C1=O [Example A-114] YES

Does the reported pest or weed control at 250 g/ha of the following compound sit strictly below 60%? CCc1ccc(Oc2ccc(Br)cc2)cc1C1=C(O)CC(C)(C)CC1=O [Example A-48] NO

Does the reported pest or weed control at 250 g/ha of the following compound sit strictly below 60%? CCc1ccc(Oc2ccc(Cl)c(F)c2)cc1C1=C(O)CC(C)(C)CC1=O [Example A-46] NO

Does the reported pest or weed control at 250 g/ha of the following compound sit strictly below 60%? CCc1ccc(Oc2ccc(Cl)cc2C)cc1C1=C(O)C(C)(C)OC(C)(C)C1=O [Example A-180] YES

Does the reported pest or weed control at 250 g/ha of the following compound sit strictly below 60%? CCc1ccc(Oc2ccc3ccccc3c2)cc1C1=C(O)C(C)(C)OC(C)(C)C1=O [Example A-56] NO

###

# System: Echinochloa crus-galli (ECHCG)
# Assay method text: Pre-emergence herbicidal activity, glasshouse pot test
# Assay type: in vivo
# Test context: Echinochloa crus-galli, 312 h; Rate 250 g/ha; pre-emergence spray; evaluated after 13 days; read-out: Pre-emergence activity ECHCG (100=total damage to plant; 0=no damage to plant)
Assign labels as follows, please: t for pest or weed control at 250 g/ha below 90%; f for pest or weed control at 250 g/ha equal to or exceeding 90%.

Does the reported pest or weed control at 250 g/ha of the following compound sit strictly below 90%? CCc1ccc(Oc2nc3c(Cl)c(OC)ccc3s2)cc1C1=C(O)C(C)(C)OC(C)(C)C1=O t

Does the reported pest or weed control at 250 g/ha of the following compound sit strictly below 90%? CCc1ccc(Oc2c(F)cc(C(F)(F)F)cc2F)cc1C1=C(O)C(C)(C)OC(C)(C)C1=O t

Does the reported pest or weed control at 250 g/ha of the following compound sit strictly below 90%? CCc1ccc(Oc2ccc(C#N)c(Cl)c2)cc1C1=C(O)[C@H]2CC[C@H](C2)C1=O f

Does the reported pest or weed control at 250 g/ha of the following compound sit strictly below 90%? CCc1ccc(Oc2ccc(C#N)cc2C(F)(F)F)cc1C1=C(O)CC2(CCOCC2)CC1=O f

Does the reported pest or weed control at 250 g/ha of the following compound sit strictly below 90%? CCc1ccc(Oc2ccc([N+](=O)[O-])c(Cl)c2)cc1C1=C(O)[C@H]2CC[C@H](C2)C1=O f

Does the reported pest or weed control at 250 g/ha of the following compound sit strictly below 90%? CCc1ccc(Oc2nc3ccc(F)cc3nc2Cl)cc1C1=C(O)C(C)(C)OC(C)(C)C1=O t

Does the reported pest or weed control at 250 g/ha of the following compound sit strictly below 90%? CCc1ccc(Oc2ncc(C(F)(F)F)cc2C(F)(F)F)cc1C1=C(O)[C@@H]2CC[C@](C)(C1=O)C2(C)C f

Does the reported pest or weed control at 250 g/ha of the following compound sit strictly below 90%? CCc1ccc(Oc2nc3ccc(C)cc3s2)cc1C1=C(O)C(C)(C)OC(C)(C)C1=O t

Does the reported pest or weed control at 250 g/ha of the following compound sit strictly below 90%? CCc1ccc(Oc2cc(Cl)cc(Cl)n2)cc1C1=C(O)C(C)(C)OC(C)(C)C1=O t

Does the reported pest or weed control at 250 g/ha of the following compound sit strictly below 90%? CCc1ccc(Oc2ccc(Br)cc2F)cc1C1=C(O)[C@@H]2CC[C@](C)(C1=O)C2(C)C f

Does the reported pest or weed control at 250 g/ha of the following compound sit strictly below 90%? CCc1ccc(Oc2cc(F)cc(F)c2C#N)cc1C1=C(O)C(C)(C)OC(C)(C)C1=O t

Does the reported pest or weed control at 250 g/ha of the following compound sit strictly below 90%? CCc1ccc(Oc2ccc3ccccc3c2)cc1C1=C(O)C(C)(C)OC(C)(C)C1=O t

Does the reported pest or weed control at 250 g/ha of the following compound sit strictly below 90%? CCc1ccc(Oc2nc3cc(Cl)ccc3s2)cc1C1=C(O)[C@H]2CC[C@H](C2)C1=O f

Does the reported pest or weed control at 250 g/ha of the following compound sit strictly below 90%? CCc1ccc(Oc2ccc(C(F)(F)F)cc2Cl)cc1C1=C(O)CC(C)(C)CC1=O f

Does the reported pest or weed control at 250 g/ha of the following compound sit strictly below 90%? CCc1ccc(Oc2ccc(F)cc2[N+](=O)[O-])cc1C1=C(O)C(C)(C)OC(C)(C)C1=O t

Does the reported pest or weed control at 250 g/ha of the following compound sit strictly below 90%? CCc1ccc(Oc2ccc([N+](=O)[O-])cc2)cc1C1=C(O)C(C)(C)OC(C)(C)C1=O f

Does the reported pest or weed control at 250 g/ha of the following compound sit strictly below 90%? CCc1ccc(Oc2cc(F)ccc2C#N)cc1C1=C(O)C(C)(C)OC(C)(C)C1=O t

Does the reported pest or weed control at 250 g/ha of the following compound sit strictly below 90%? CCc1ccc(Oc2ccc(Cl)cc2Cl)cc1C1=C(O)[C@H]2CC[C@H](C2)C1=O (single isomer, unassigned) f

Does the reported pest or weed control at 250 g/ha of the following compound sit strictly below 90%? CCc1ccc(Oc2nc3ccccc3s2)cc1C1=C(O)[C@H]2CC[C@H](C2)C1=O f

Does the reported pest or weed control at 250 g/ha of the following compound sit strictly below 90%? CCc1ccc(Oc2ncc(C(F)(F)F)cc2Cl)cc1C1=C(O)C(C)(C)OC(C)(C)C1=O f

Does the reported pest or weed control at 250 g/ha of the following compound sit strictly below 90%? CCc1ccc(Oc2cnc3cc(F)ccc3n2)cc1C1=C(O)CC(C)(C)CC1=O f

Does the reported pest or weed control at 250 g/ha of the following compound sit strictly below 90%? CC1(C)OC(C)(C)C(O)=C(c2cc(Oc3cnc4cc(Cl)ccc4n3)ccc2C2CC2)C1=O f

Does the reported pest or weed control at 250 g/ha of the following compound sit strictly below 90%? CCc1ccc(Oc2cnc3cc(Cl)ccc3n2)cc1C1=C(O)[C@H]2CC[C@H](C2)C1=O f

Does the reported pest or weed control at 250 g/ha of the following compound sit strictly below 90%? CC1(C)OC(C)(C)C(O)=C(c2cc(Oc3ccc4cc(Cl)ccc4n3)ccc2C2CC2)C1=O f

Does the reported pest or weed control at 250 g/ha of the following compound sit strictly below 90%? CCc1ccc(Oc2ccc(Cl)cc2F)cc1C1=C(O)CCC(C)(C)C1=O t
